# reported EC50 (nM), CLR/RAMP2 arrestin assay; entries follow
# Target Or Test System: CLR/RAMP2 receptor (UniProt Q16602 23-461; O60895 43-175, limits assumed)
# Sequence (Q16602 23-461 limits assumed, chain 1 of 2): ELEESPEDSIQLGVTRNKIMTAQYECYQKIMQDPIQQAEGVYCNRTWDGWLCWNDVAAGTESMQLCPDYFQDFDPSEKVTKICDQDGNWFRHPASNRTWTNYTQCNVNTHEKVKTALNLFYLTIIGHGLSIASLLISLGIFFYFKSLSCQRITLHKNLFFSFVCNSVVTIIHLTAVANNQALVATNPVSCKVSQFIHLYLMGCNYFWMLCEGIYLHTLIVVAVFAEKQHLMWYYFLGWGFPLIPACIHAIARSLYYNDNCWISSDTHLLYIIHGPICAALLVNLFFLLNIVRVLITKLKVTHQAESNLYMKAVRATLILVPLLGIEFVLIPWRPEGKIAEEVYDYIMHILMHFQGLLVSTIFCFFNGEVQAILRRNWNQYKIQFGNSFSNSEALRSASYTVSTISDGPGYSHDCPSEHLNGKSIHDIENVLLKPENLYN
# Sequence (O60895 43-175 limits assumed, chain 2 of 2): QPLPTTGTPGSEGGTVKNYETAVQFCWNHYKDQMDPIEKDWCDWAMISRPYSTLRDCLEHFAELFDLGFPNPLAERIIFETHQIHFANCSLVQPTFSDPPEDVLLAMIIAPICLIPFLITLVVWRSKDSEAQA
# Assay Method Text: cell-based or functional assay
Non-standard residues stand in square brackets, D forms with d. No end group written: not given here. *: point of attachment. Palmitoyl = CCCCCCCCCCCCCCCC(=O)*; AEEEA = NCCOCCOCCOCC(=O)O
Report only the number, with the unit nM understood.

Endpoint output: EC50 (nM), CLR/RAMP2 arrestin assay of [AEEEA]K(Palmitoyl)CRFGTCTVQKLAHQIYQFTDKDKDNSAPVDPSSPHSY-NH2 (ends and bridges not checked) [SEQ ID NO: 43] . Value? 0.2

Value source: patent US20190010203A1
